Tested on: MCF7 cell line
test-details: In vitro cytotoxic activity, MTT method, MCF7
Type: cell-based, human
details: MCF7, Conc. 12.5 µMol
Exercise: for every item that follows, state its recorded Viability %.
All answers are understood in %, so give the number only.

(Q) # lookup: Viability % of CC(=O)C1C(c2ccc(N(C)C)cc2)c2c(C)nc3sc(C(=O)Nc4ccccc4)c(N)c3c2CC1(C)O (stereo not shown)
(A) 3.105

(Q) Queued: CC(=O)C1C(c2ccc(N(C)C)cc2)c2c(C)nc3sc(C(=O)Nc4ccc(C)cc4)c(N)c3c2CC1(C)O (stereo not shown)
(A) 11.93

(Q) What do you get for CC(=O)c1ccc(NC(=O)c2sc3nc(C)c4c(c3c2N)CC(C)(O)C(C(C)=O)C4c2ccc(N(C)C)cc2)cc1 (stereo not shown) ?
(A) 2.941

(Q) What would you report for CC(=O)C1C(c2ccc(N(C)C)cc2)c2c(C)nc3sc(C(=O)Nc4ccc(Cl)cc4)c(N)c3c2CC1(C)O (stereo not shown) ?
(A) 2.9
